- Tested on: Plasmodium berghei
- assay.name: Screen against P. berghei liver stage (PbLuc), transformed with Luciferase, at 10uM
- Type: functional, HepG2
- condition.label: tested at 10 uM
Out of some 69,000 compounds screened, about 8,600 (12%) showed an effect of 50% or more. This excerpt belongs to a sample that is enriched for strong results.
molecules and their reported INHIBITION
Express your answer in %, writing the number without its unit.

Reference set, count: 5
# molecule, unit.name, INHIBITION
measured = [
    ("O=C(c1ccc2nccn2c1)N1CCCC1c1noc(C2CC2)n1 (stereo unspecified)", "%", 52.3),
    ("COc1cccc(CN2CC(O)CN(C(=O)C3CC3)CC2=O)c1OC (stereo unspecified)", "%", -1.23),
    ("CCOC(=O)N1CC(=O)N(Cc2cccc(OC)c2OC)CC(O)C1 (stereo unspecified)", "%", 0.284),
    ("COc1cccc(CN2CC(O)CN(C(=O)C(C)(C)C)CC2=O)c1OC (stereo unspecified)", "%", 58.5),
    ("COc1ccc(CN2CC(O)CN(C(=O)OCC(C)(C)C)CC2=O)cc1 (stereo unspecified)", "%", -15.6),
]

Continue with the next molecule.
Prompt: Form field: reported INHIBITION of O=C(c1ccc2nncn2c1)N1CCCC1c1noc(C2CC2)n1 (stereo unspecified)
Completion: 15.1

====

compounds and their reported INHIBITION
- Tested on: Plasmodium berghei
- assay.name: Screen against P. berghei liver stage (PbLuc), transformed with Luciferase, at 10uM
- Format: functional, HepG2
- condition.label: tested at 10 uM
Hit rate of the full screen: of about 69,000 compounds, about 8,600 (12%) showed an effect of 50% or more. This is one part of a sample in which strong results are shown more often than they occur.
Express your answer in %, writing the number without its unit.

Reference set, count: 3
# smiles.text, assay.result
records = [
    ("CN(C)CC(=O)N1CCc2sc(C(=O)N3CCOCC3)cc21", 43),
    ("Cc1ccc(CN2CCc3ncc(CNS(C)(=O)=O)n3CC2)o1", 35.1),
    ("CN(CCN1CCOCC1)C(=O)CCc1cccc(Cl)c1", -3.16),
]

Prompt: // lookup INHIBITION | system=Plasmodium berghei | key= "CCCC(=O)N(CCN1CCOCC1)c1nc2c(OC)ccc(C)c2s1"
Completion: -0.473

Prompt: // lookup INHIBITION | system=Plasmodium berghei | key= "CCCC(=O)N(CCCN1CCOCC1)c1nc2c(C)ccc(Cl)c2s1"
Completion: 42.7

Prompt: // lookup INHIBITION | system=Plasmodium berghei | key= "CCCC(=O)N(CCCN1CCOCC1)c1nc2c(C)c(C)ccc2s1"
Completion: 60.1

====

- Tested on: Plasmodium berghei
- assay.name: Screen against P. berghei liver stage (PbLuc), transformed with Luciferase, at 10uM
- Assay type: functional, HepG2
- condition.label: tested at 10 uM
About 8,600 (12%) of roughly 69,000 compounds showed an effect of 50% or more. What follows is part of a selection rich in strong results, with near analogues and random picks from the rest.
Param label: returns class 1 when INHIBITION < 20%, returns class 0 otherwise, including exact equality.

# compound, group.label
rows = [
    ("CCC(C)N(Cc1cccnc1)C(=O)c1ccc(NS(=O)(=O)CC)cc1 (configuration not stated)", "class 1"),
    ("Cc1nn(C)c(C)c1CCC(=O)N1CCCC(n2cncn2)C1 (configuration not stated)", "class 0"),
    ("CCOCC(=O)N1C[C@H]2CC[C@@H](C1)N(Cc1ccccn1)C2=O", "class 0"),
    ("O=C(CCn1ccnc1)N1C[C@@H](O)[C@H](Oc2cccc(F)c2)C1", "class 1"),
    ("CN(Cc1cnn(C)c1)C(=O)NCCc1ccc2c(c1)OCO2", "class 1"),
    ("CCc1cnc(NCCCN2CCC(O)CC2)nc1", "class 1"),
]

Prompt: I'd appreciate it if you could check whether CCC(C(=O)NC(C)(C)C)n1ccc2ncccc2c1=O (configuration not stated) has INHIBITION smaller than 20%.
Completion: class 0

Prompt: I'd appreciate it if you could check whether "CC(C)CS(=O)(=O)CCNc1ncccn1" has INHIBITION smaller than 20%.
Completion: class 1

Prompt: I'd appreciate it if you could check whether "CCc1cnc(NCCS(=O)(=O)N(C)C)nc1" has INHIBITION smaller than 20%.
Completion: class 0

Prompt: I'd appreciate it if you could check whether CC(C)CC(NC(=O)c1ccco1)c1nc2cccnc2n1C (configuration not stated) has INHIBITION smaller than 20%.
Completion: class 0

Prompt: I'd appreciate it if you could check whether "CCc1cnc(NCCS(=O)(=O)CC(C)C)nc1" has INHIBITION smaller than 20%.
Completion: class 0

Prompt: I'd appreciate it if you could check whether "CC1CCN(c2nccn3c(=O)[nH]nc23)CC1" has INHIBITION smaller than 20%.
Completion: class 1

====

- System: Plasmodium berghei
- assay.name: Screen against P. berghei liver stage (PbLuc), transformed with Luciferase, at 10uM
- Assay type: functional, HepG2
- condition.label: tested at 10 uM
About 8,600 (12%) of roughly 69,000 compounds showed an effect of 50% or more. The list comes from a sample in which strong results are over-represented; it also holds close analogues and randomly drawn compounds.
outcome.measure: INHIBITION (%)
Express your answer in %, writing the number without its unit.

Reference set, count: 5
# molecule, unit.name, INHIBITION
rows = [
    ("Cc1ccc(C(=O)NCCC(C)C)cc1NS(C)(=O)=O", "%", 18.6),
    ("CN(C)c1cncc(C2CCCN(c3cnccn3)C2)n1 (stereo not given)", "%", 17.77),
    ("c1cnn(CCCO[C@@H]2CC[C@H]3[C@H]2OCCN3CC2CC2)c1", "%", 53),
    ("O=C(C1CCC1)N1CCO[C@H]2[C@H](OCCCn3cccn3)CC[C@@H]21", "%", -47.8),
    ("CC(C)CCNC(=O)c1ccc(Cl)c(NS(C)(=O)=O)c1", "%", 54.4),
]

Prompt: // lookup INHIBITION | system=Plasmodium berghei | key= "Cc1cc(C(=O)NCCC(C)C)ccc1NS(C)(=O)=O"
Completion: 65.6

Prompt: // lookup INHIBITION | system=Plasmodium berghei | key= "c1cnn(CCCO[C@@H]2CC[C@H]3[C@H]2OCCN3CC2CCOCC2)c1"
Completion: 26.3

Prompt: // lookup INHIBITION | system=Plasmodium berghei | key= "Cc1nnc(N2C[C@H](OCCCn3cccn3)[C@H]3OCCC[C@H]32)s1"
Completion: 43.9

Prompt: // lookup INHIBITION | system=Plasmodium berghei | key= "CC(=O)N1CCO[C@H]2[C@H](OCCCn3cccn3)CC[C@@H]21"
Completion: 19.4

Prompt: // lookup INHIBITION | system=Plasmodium berghei | key= O=C(O)c1c(-c2cncnc2)ncc2c1CCN(CC1CCOC1)C2 (stereo not given)
Completion: 43

====

- System: Plasmodium berghei
- assay.name: Screen against P. berghei liver stage (PbLuc), transformed with Luciferase, at 10uM
- Type: functional, HepG2
- condition.label: tested at 10 uM
The campaign covered roughly 69,000 compounds. About 8,600 (12%) showed an effect of 50% or more. This is one part of a sample in which strong results are shown more often than they occur.
outcome.measure: INHIBITION (%)
Express your answer in %, writing the number without its unit.

Prompt: Form field: reported INHIBITION of Cc1nc(C2CCNC2)nc2c1CCC(=O)N2C (stereo not drawn)
Completion: 17.265

Prompt: Form field: reported INHIBITION of "CN(C)C[C@@H]1CCC[C@@H]2CN(c3cccnc3)C[C@@H]21"
Completion: -11

Prompt: Form field: reported INHIBITION of "Cc1oc(C(=O)O)cc1S(=O)(=O)Nc1cc(Br)ccc1F"
Completion: -0.96

Prompt: Form field: reported INHIBITION of O=C1NCC2(CCCN(Cc3ccncc3)C2)Oc2ccccc21 (stereo not drawn)
Completion: 36.4

Prompt: Form field: reported INHIBITION of c1cncc(CN(Cc2ccc(-n3ccnc3)cc2)CC2CCCO2)c1 (stereo not drawn)
Completion: 23.2

Prompt: Form field: reported INHIBITION of Cc1c(C(C)NC(=O)Nc2ccccc2F)cnn1C (stereo not drawn)
Completion: 61.9

Prompt: Form field: reported INHIBITION of "CS(=O)(=O)N1Cc2ccccc2C2(CCN(C(=O)c3ccno3)CC2)C1"
Completion: 55.7

Prompt: Form field: reported INHIBITION of COCC1c2c(cnn2C)CCN1Cc1ccc(F)cc1 (stereo not drawn)
Completion: 21.6

Prompt: Form field: reported INHIBITION of "Cc1cc2[nH]c(=O)oc2cc1S(=O)(=O)N1C[C@@H](N(C)C)[C@H](C(C)C)C1"
Completion: 26.5

Prompt: Form field: reported INHIBITION of "CCN1C[C@@H]2CN(c3cc(OC)ncn3)CCC[C@]2(C(=O)O)C1"
Completion: 47.5

Prompt: Form field: reported INHIBITION of Cc1cccc(CN2CCC3(CCCN(C(=O)c4ccsc4)C3)C2=O)n1 (stereo not drawn)
Completion: 12.6

Recorded values, source ChEMBL document CHEMBL4513216.
